- System: Fibroblast
- procedure summary: Multiplex assay against human fibroblast
- Type: toxicity, cell-based
- condition context: 24 h, 1 µM, compound concentration 1 uM, replicate 1
Overview of recorded Population Normal (%) for various molecules

molecule	Population Normal (%)
NC(=O)c1ccc2nc(-c3ccc(C4(N)CCC4)cc3)c(-c3ccccc3)n2n1 [BAY-1125976]	58%
CCOC(=O)CCNc1cc(N2CCc3ccccc3CC2)nc(-c2ccccn2)n1	87%
Cc1ccc(S(=O)(=O)NC2c3ccccc3Oc3ccccc32)cc1	80%
N#Cc1cccc(C(=O)Nc2cc(-c3ccccc3)nn2-c2ccccc2)c1	91%
Cc1c(P(=S)(c2ccccc2)c2ccccc2)n2ccccc2[n+]1C/C=C/c1ccccc1.[Br-]	90%
N#CCNC(=O)c1ccc(-c2ccnc(Nc3ccc(N4CCOCC4)cc3)n2)cc1 [MOMELOTINIB]	88%
CCCCCNC(=N)N/N=C/c1c[nH]c2ccc(OC)cc12.O=C(O)/C=C\C(=O)O [TEGASEROD MALEATE]	90%
CC(Cc1ccc(O)c(O)c1)C(C)Cc1ccc(O)c(O)c1 (stereo not given) [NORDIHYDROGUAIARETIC ACID]	93%
Cl.Cn1c2c(c3ccc(Cl)c(Cl)c31)C(C#N)C1(CCNCC1)NC2=O (stereo not given)	84%
CC[C@H](Nc1ncnc2[nH]cnc12)c1nc2cccc(F)c2c(=O)n1-c1ccccc1 [IDELALISIB]	87%
